Source listed as patent EP3290412A1.

- Tested on: ARP clone 12465 (PI)
- RUN DESCRIPTION: BiCycle assay, resistant viral strain
- Format: cell-based, HIV-1
- MEASUREMENT CONDITIONS: IC50 resistant strain / IC50 wild type NL4-3, BiCycle Assay
Decide by Fold change 12465 (PI): equal to or exceeding 2 means y, less means n.

Completed entries (count: 4):
STRUCTURE SMILES	ASSIGNED CATEGORY
C[C@@H](NC(=O)c1nc(-c2cc(Cl)ccn2)nc(O)c1O)C1CCCCC1	n
O=C(NCC1CCCCC1)c1nc(-c2ccccn2)nc(O)c1O	y
C[C@@H](NC(=O)c1nc(-c2nccc3ccccc23)nc(O)c1O)C1CCCCC1	y
COc1ccnc(-c2nc(O)c(O)c(C(=O)N[C@H](C)C3CCCCC3)n2)c1	y

Form field: Fold change 12465 (PI) at least 2? Entry: Cc1cccnc1-c1nc(O)c(O)c(C(=O)N[C@H](C)C2CCCCC2)n1
y

---

- SYSTEM TESTED: NC(11-55) (Human immunodeficiency virus type 1)
- RUN DESCRIPTION: NC inhibition assay (NC-induced cTAR DNA destabilization, fluorescence)
- Format: biochemical, HIV-1
- MEASUREMENT CONDITIONS: cTAR DNA 0.1 µM, 1 µM NC(11-55), 20 °C, pH 7.5; read-out: NC inhibition IC50
pIC50: −log10 of the molar value.
Rule: rule met for pIC50 not less than 5, rule not met for anything less.

Solved entries (count: 3):
COMPOUND	ASSIGNED CATEGORY
C[C@@H](NC(=O)c1nc(-c2ncccc2NC(=O)OC(C)(C)C)nc(O)c1O)C1CCCCC1 [Compound 42]	rule not met
C[C@@H](NC(=O)c1nc(-c2ccc(CO)cn2)nc(O)c1O)C1CCCCC1 [Compound 55]	rule not met
C[C@@H](NC(=O)c1nc(-c2cc([N+](=O)[O-])ccn2)nc(O)c1O)C1CCCCC1 [Compound 40]	rule met

Confirm if pIC50 reported for the compound O=C(c1nc(-c2ccccn2)nc(O)c1O)N1CCC(c2ccccc2)CC1 [Compound 9] is 5 or above.
rule not met

Reported pIC50 at or above 5? C[C@@H](NC(=O)c1nc(-c2ccc(NC(=O)OC(C)(C)C)cn2)nc(O)c1O)C1CCCCC1 [Compound 61]
rule not met

---

We begin with a simple list: items and their reported Proliferation assay PBMC TD50.
- Tested on: Peripheral blood mononuclear cells (PBMC)
- Assay type: cell-based
- MEASUREMENT CONDITIONS: human, 7 days
Give just the number in nM; leave the unit off.

Worked cases, Proliferation assay PBMC TD50 given:
STRUCTURE SMILES	SYSTEM TESTED	Proliferation assay PBMC TD50 / nM
C[C@@H](NC(=O)c1nc(-c2cc3ccccc3cn2)nc(O)c1O)C1CCCCC1	Peripheral blood mononuclear cells (PBMC)	1750
CCNCc1ccc(-c2nc(O)c(O)c(C(=O)N[C@H](C)C3CCCCC3)n2)nc1	Peripheral blood mononuclear cells (PBMC)	1600
C[C@H](NC(=O)c1nc(-c2ccc3ccccc3n2)nc(O)c1O)C1CCCCC1	Peripheral blood mononuclear cells (PBMC)	6900
C[C@@H](NC(=O)c1nc(-c2ccc(NC(=O)OC(C)(C)C)cn2)nc(O)c1O)C1CCCCC1	Peripheral blood mononuclear cells (PBMC)	2400

Here is the next item to consider.
Request the reported Proliferation assay PBMC TD50 associated with Cc1ccnc(-c2nc(O)c(O)c(C(=O)N[C@H](C)C3CCCCC3)n2)c1
3075
